Where do the numbers come from? From ChEMBL document CHEMBL5584338.

assay: Cmax in Sprague-Dawley rat at 5 mg/kg, iv; type: ADME, organism-based; conditions: in vivo
measure-name: Cmax (ng/mL)
Return type: number; implicit unit ng/mL.

INPUT: # get_value(readout='Cmax', item= CCNS(=O)(=O)Nc1cccc(Cn2cnc3c(F)c(Nc4ccc(C5CC5)cc4F)c(C(=O)NOCCO)cc32)c1F )
OUTPUT: 603

----------
Recorded inhibition at 1 µM, one value per entry.
system: HCT-116; assay: Antiproliferative activity against human HCT-116 cells harboring KRAS G13D mutant at 1 uM incubated for 72 hrs by CCK8 assay relative to control; type: functional
Return type: number; implicit unit %.

INPUT: # get_value(readout='inhibition at 1 µM', item= CCC(=O)Nc1cccc(Cn2cnc3c(F)c(Nc4ccc(C5CC5)cc4F)c(C(=O)NOCCO)cc32)c1 )
OUTPUT: 17.8

Next:
INPUT: # get_value(readout='inhibition at 1 µM', item= CS(=O)(=O)Nc1cccc(Cn2cnc3c(F)c(Nc4ccc(C5CC5)cc4F)c(C(=O)NOCCO)cc32)c1 )
OUTPUT: 46.2

----------
system: MIA PaCa-2; experiment: Antiproliferative activity against human MIA PaCa-2 cells harboring KRAS G12C mutant incubated for 72 hrs by CCK8 assay; type: functional, cell-based; conditions: MIA PaCa-2, 72 h
measure-name: pIC50
Conceptually, pIC50 converts a concentration in mol/L into minus its log10.

// below: answered compounds
INPUT: # get_value(readout='pIC50', item= CNS(=O)(=O)Nc1cccc(Cn2cnc3c(F)c(Nc4ccc(Br)cc4F)c(C(=O)NOCCO)cc32)c1F )
OUTPUT: 6.65

INPUT: For CNS(=O)(=O)Nc1cccc(Cn2cnc3c(F)c(Nc4ccc(I)cc4F)c(C(=O)NOCCO)cc32)c1F then?
OUTPUT: 7.15

INPUT: For CC(C)NS(=O)(=O)Nc1cccc(Cn2cnc3c(F)c(Nc4ccc(C5CC5)cc4F)c(C(=O)NOCCO)cc32)c1 then?
OUTPUT: 6.82

INPUT: For CNS(=O)(=O)Nc1cccc(Cn2cnc3c(F)c(Nc4ccc(C5CC5)cc4F)c(C(=O)NOCCO)cc32)c1 then?
OUTPUT: 6.94

INPUT: For CNS(=O)(=O)Nc1cccc(Cn2cnc3c(F)c(Nc4ccc(C5CCC5)cc4F)c(C(=O)NOCCO)cc32)c1F then?
OUTPUT: 6.60

Next:
INPUT: # get_value(readout='pIC50', item= CS(=O)(=O)Nc1cccc(Cn2cnc3c(F)c(Nc4ccc(C5CC5)cc4F)c(C(=O)NOCCO)cc32)c1 )
OUTPUT: 6.86

INPUT: For O=C(NOCCO)c1cc2c(ncn2Cc2cccc(NC(=O)C3CC3)c2)c(F)c1Nc1ccc(C2CC2)cc1F then?
OUTPUT: 6.20

----------
experiment: Half life in Sprague-Dawley rat at 5 mg/kg, iv; assay type: ADME, organism-based; conditions: in vivo
measure-name: half-life (min)
Return type: number; implicit unit min.

INPUT: # get_value(readout='half-life', item= CCNS(=O)(=O)Nc1cccc(Cn2cnc3c(F)c(Nc4ccc(C5CC5)cc4F)c(C(=O)NOCCO)cc32)c1F )
OUTPUT: 55.2

----------
Recorded log10 of IC50, one value per entry.
test system: HCT-116; test: Antiproliferative activity against human HCT-116 cells harboring KRAS G13D mutant incubated for 72 hrs by CCK8 assay; type: functional, cell-based; conditions: HCT-116, 72 h
On a log10 scale: recorded IC50, unit µM.

INPUT: // fetch HCT-116 log10 of IC50 for CCNS(=O)(=O)Nc1cccc(Cn2cnc3c(F)c(Nc4ccc(C)cc4F)c(C(=O)NOCCO)cc32)c1F
OUTPUT: -0.34

Next:
INPUT: // fetch HCT-116 log10 of IC50 for CCNS(=O)(=O)Nc1cccc(Cn2cnc3c(F)c(Nc4ccc(Br)cc4F)c(C(=O)NOCCO)cc32)c1F
OUTPUT: -0.82

INPUT: For CNS(=O)(=O)Nc1cc(F)cc(Cn2cnc3c(F)c(Nc4ccc(C5CC5)cc4F)c(C(=O)NOCCO)cc32)c1 then?
OUTPUT: -0.76

----------
target: Dual specificity mitogen-activated protein kinase kinase 1 (Homo sapiens); experiment: Inhibition of MEK1 (unknown origin) assessed as remaining activity at 0.1 uM relative to control
Sequence (Q02750 whole entry): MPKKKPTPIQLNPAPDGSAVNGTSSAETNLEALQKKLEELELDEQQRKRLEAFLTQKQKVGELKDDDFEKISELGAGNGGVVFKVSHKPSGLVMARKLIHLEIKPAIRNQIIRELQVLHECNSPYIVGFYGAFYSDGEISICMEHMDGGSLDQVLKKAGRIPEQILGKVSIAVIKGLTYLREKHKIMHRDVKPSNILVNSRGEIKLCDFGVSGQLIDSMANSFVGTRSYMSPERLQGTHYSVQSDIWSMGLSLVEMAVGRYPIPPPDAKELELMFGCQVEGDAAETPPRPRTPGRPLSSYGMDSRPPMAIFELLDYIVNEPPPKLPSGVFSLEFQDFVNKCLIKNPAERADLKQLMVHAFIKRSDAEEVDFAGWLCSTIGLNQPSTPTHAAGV
measure-name: Activity
Kindly report the value followed by its unit.

INPUT: // fetch Dual specificity mitogen-activated protein kinase kinase 1 (Homo sapiens) Activity for CCC(=O)Nc1cccc(Cn2cnc3c(F)c(Nc4ccc(C5CC5)cc4F)c(C(=O)NOCCO)cc32)c1
OUTPUT: 89%

Next:
INPUT: // fetch Dual specificity mitogen-activated protein kinase kinase 1 (Homo sapiens) Activity for CCNS(=O)(=O)Nc1cccc(Cn2cnc3c(F)c(Nc4ccc(C5CC5)cc4F)c(C(=O)NOCCO)cc32)c1F
OUTPUT: 25%

INPUT: For CNS(=O)(=O)Nc1ccc(F)c(Cn2cnc3c(F)c(Nc4ccc(C5CC5)cc4F)c(C(=O)NOCCO)cc32)c1 then?
OUTPUT: 79%

INPUT: For CCNS(=O)(=O)Nc1cccc(Cn2cnc3c(F)c(Nc4ccc(I)cc4F)c(C(=O)NOCCO)cc32)c1F then?
OUTPUT: 8%

INPUT: For CNS(=O)(=O)Nc1cccc(Cn2cnc3c(F)c(Nc4ccc(I)cc4F)c(C(=O)NOCCO)cc32)c1Cl then?
OUTPUT: 5%

INPUT: For CC(=O)Nc1cccc(Cn2cnc3c(F)c(Nc4ccc(C5CC5)cc4F)c(C(=O)NOCCO)cc32)c1 then?
OUTPUT: 75%

----------
biological target: Dual specificity mitogen-activated protein kinase kinase 1 (Homo sapiens); assay: Inhibition of MEK1 (unknown origin) assessed as remaining activity at 0.1 uM relative to control
Under this convention, TRUE denotes Activity strictly below 80% and FALSE denotes Activity at or above 80%.

Here are 2 compounds together with their reported answers.
INPUT: Hello, I'm reviewing records and need to know if Activity of CNS(=O)(=O)Nc1cccc(Cn2cnc3c(F)c(Nc4ccc(C5CCC5)cc4F)c(C(=O)NOCCO)cc32)c1F is below 80%. Could you check?
OUTPUT: TRUE

INPUT: For CNS(=O)(=O)Nc1cccc(Cn2cnc3c(F)c(Nc4ccc(C5CC5)cc4F)c(C(=O)NOCCO)cc32)c1Cl then?
OUTPUT: TRUE

Next:
INPUT: Hello, I'm reviewing records and need to know if Activity of CNS(=O)(=O)Nc1cccc(Cn2cnc3c(F)c(Nc4ccc(C5CC5)cc4F)c(C(=O)NOCCO)cc32)c1F is below 80%. Could you check?
OUTPUT: TRUE

INPUT: For CS(=O)(=O)Nc1cccc(Cn2cnc3c(F)c(Nc4ccc(C5CC5)cc4F)c(C(=O)NOCCO)cc32)c1 then?
OUTPUT: TRUE

INPUT: For O=C(NOCCO)c1cc2c(ncn2Cc2cccc(NC(=O)C3CCCC3)c2)c(F)c1Nc1ccc(C2CC2)cc1F then?
OUTPUT: FALSE

INPUT: For CCNS(=O)(=O)Nc1cccc(Cn2cnc3c(F)c(Nc4ccc(C5CC5)cc4F)c(C(=O)NOCCO)cc32)c1Cl then?
OUTPUT: TRUE

INPUT: For CNS(=O)(=O)Nc1cccc(Cn2cnc3c(F)c(Nc4ccc(I)cc4F)c(C(=O)NOCCO)cc32)c1F then?
OUTPUT: TRUE

INPUT: For O=C(NOCCO)c1cc2c(ncn2Cc2cccc(NC(=O)C3CCCCC3)c2)c(F)c1Nc1ccc(C2CC2)cc1F then?
OUTPUT: FALSE

----------
tested on: HCT-116; test: Antiproliferative activity against human HCT-116 cells harboring KRAS G13D mutant at 1 uM incubated for 72 hrs by CCK8 assay relative to control; type: functional
I would appreciate it if you labelled entries MET when inhibition at 1 µM is 10% or higher, otherwise NOT MET.

Here are 5 compounds together with their reported answers.
INPUT: Is the recorded value of inhibition at 1 µM equal to or greater than 10% for this compound? CNS(=O)(=O)N1CCCC(Cn2cnc3c(F)c(Nc4ccc(C5CC5)cc4F)c(C(=O)NOCCO)cc32)C1 (stereo unspecified)
OUTPUT: NOT MET

INPUT: For O=C(NOCCO)c1cc2c(ncn2Cc2cccc(NC(=O)C3CCCCC3)c2)c(F)c1Nc1ccc(C2CC2)cc1F then?
OUTPUT: MET

INPUT: For CCNS(=O)(=O)Nc1cc(Cn2cnc3c(F)c(Nc4ccc(C5CC5)cc4F)c(C(=O)NOCCO)cc32)ccc1F then?
OUTPUT: MET

INPUT: For CC(=O)Nc1cccc(Cn2cnc3c(F)c(Nc4ccc(C5CC5)cc4F)c(C(=O)NOCCO)cc32)c1 then?
OUTPUT: MET

INPUT: For CCNS(=O)(=O)Nc1cccc(Cn2cnc3c(F)c(Nc4ccc(I)cc4F)c(C(=O)NOCCO)cc32)c1F then?
OUTPUT: MET

# evaluate next
INPUT: Is the recorded value of inhibition at 1 µM equal to or greater than 10% for this compound? CNS(=O)(=O)Nc1cccc(Cn2cnc3c(F)c(Nc4ccc(C5CC5)cc4F)c(C(=O)NOCCO)cc32)c1Cl
OUTPUT: MET
